# System: IL-4
# Assay comment: Cell test: IL-4 secretion by P815 cells stimulated with compound 48/80 (ELISA)
# Assay type: cell-based, mouse
# Set-up: unit not given here
# Applied conditions: 20 minutes pre-incubation with polypeptide, then compound 48/80, total 6 hours, supernatant ELISA
# Experimental: In this example, the cell line used was the P815 mouse mastocytoma cell line, and the allergen was compound 48/80. […] When the culturing process was completed, the supernatants were collected, and the amounts of IL-4 and IL-13 secretions were analyzed by enzyme-linked immunosorbent assay (ELISA), with the results shown in FIG. 1 and Table 2.
Assay endpoint: IL-4 inhibitory activity
Give bare numbers.

Worked set:
Sequence input: GHCGCSSG [SEQ ID No. 8]
Value: −38.5

Sequence input: SMNLSLVLQVV [SEQ ID No. 4]
Value: −32.9

Moving on to another sequence below.
*Q* GET /values?readout=IL-4 inhibitory activity&item= ALYPLLTTLTD [SEQ ID No. 5]
*A* −13.1

* * *

# Test system: IL-4
# Assay comment: Cell test: IL-4 secretion by P815 cells stimulated with compound 48/80 (ELISA)
# Assay type: cell-based, mouse
# Set-up: unit not given here
# Applied conditions: 20 minutes pre-incubation with polypeptide, then compound 48/80, total 6 hours, supernatant ELISA
Assay endpoint: IL-4 inhibitory activity
Answers are plain numbers.

Sequence input: RLTDYFTID [SEQ ID No. 3]
Value: −8.9
--
Sequence input: LVGTDVATAQAP [SEQ ID No. 7]
Value: −23.9
--
Sequence input: NFIVTGLQDIM [SEQ ID No. 9]
Value: −11.5
--
Sequence input: VRYLEWSNIESIIA [SEQ ID No. 6]
Value: −22.2
--
Sequence input: IGVDEHYTPI [SEQ ID No. 10]
Value: −7.2
--
Sequence input: INFVTEEDKR [SEQ ID No. 1]
Value: −25.2

*Q* GET /values?readout=IL-4 inhibitory activity&item= LGVTNINISDP [SEQ ID No. 2]
*A* −16.0
